Molecular target: human CB1 receptor (Homo sapiens, UniProt P21554)
Construct: expressed in transfected cells; host or cells: HEK293
Sequence (P21554 whole entry): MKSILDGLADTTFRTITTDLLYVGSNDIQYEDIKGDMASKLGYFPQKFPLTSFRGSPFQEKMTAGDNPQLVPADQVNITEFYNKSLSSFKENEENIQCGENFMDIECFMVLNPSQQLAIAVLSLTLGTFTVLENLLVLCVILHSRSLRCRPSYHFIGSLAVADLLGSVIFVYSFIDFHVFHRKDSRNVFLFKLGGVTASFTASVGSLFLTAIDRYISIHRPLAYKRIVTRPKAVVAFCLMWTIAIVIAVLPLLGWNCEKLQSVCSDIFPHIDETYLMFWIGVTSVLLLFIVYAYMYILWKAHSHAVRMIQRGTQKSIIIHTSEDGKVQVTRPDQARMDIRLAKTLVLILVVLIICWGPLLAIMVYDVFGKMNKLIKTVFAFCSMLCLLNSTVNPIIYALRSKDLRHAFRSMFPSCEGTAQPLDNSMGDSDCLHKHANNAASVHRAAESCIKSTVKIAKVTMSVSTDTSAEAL
Experiment: bioSensAll β-arrestin plasma membrane translocation BRET biosensor (+GRK2) assay (antagonism of CP-55,940)
Assay type: cell-based
Conditions: HEK293 cells transfected with hCB1 and β-arrestin PM translocation biosensor (+GRK2), EC75 of CP-55,940 (100 nM), overnight incubation, read-out: CB1 wt βarr2 IC50
pIC50: −log10 of the molar value.
value_type: pIC50

Below, each entry is followed by its recorded pIC50 result.
Data request: Entry COc1ccc(-c2cc(N3CCC[C@H]3CO)nc3c(-c4ccc(Cl)cc4)c(-c4ccc(C#N)cc4)nn23)cc1 [Compound 50] : reported pIC50 = ?
Data returned: 8.32

Data request: pIC50 for CC(=O)NC1(C)CCN(c2cc(N(C)CCC(N)=O)nc3c(-c4ccc(Cl)cc4)c(-c4ccccc4Cl)nn23)CC1 [Compound 27] ?
Data returned: 8.33

Data request: Which pIC50 is reported for this compound? CN(CC(C)(C)O)c1cc(-c2ccc(C(F)(F)F)nc2)n2nc(-c3ccc(C(N)=O)nc3)c(-c3ccc(Cl)cc3)c2n1 [Compound 64]
Data returned: 8.53

Data request: // query pIC50 value for entry CC(C)OC1(C(N)=O)CCN(c2cc(N3CCC[C@H]3CO)nc3c(-c4ccc(Cl)cc4)c(-c4ccccc4Cl)nn23)CC1 [Compound 58]
Data returned: 8.66

(I) O=S(=O)(N1CCN(c2cc(N3CCC[C@H]3CO)nc3c(-c4ccc(Cl)cc4)c(-c4ccccc4Cl)nn23)CC1)C(F)(F)F [Compound 7]
(II) CN(CCC(N)=O)c1cc(N2CCC[C@@H](C(N)=O)C2)n2nc(-c3ccccc3Cl)c(-c3ccc(Cl)cc3)c2n1 [Compound 23]
(III) CNC(=O)CCN(C)c1cc(N2CCC(C)(C(N)=O)CC2)n2nc(-c3ccccc3Cl)c(-c3ccc(Cl)cc3)c2n1 [Compound 38]
(IV) CCNC(=O)CN(C)c1cc(N2CC(CC(N)=O)C2)n2nc(-c3ccccc3Cl)c(-c3ccc(Cl)cc3)c2n1 [Compound 31]
Data request: # ascending order, key=pIC50 Answer format: list of labels, ordered as asked.
Data returned: IV, II, III, I

(P) CN(CCC(N)=O)c1cc(N2CC(CC(N)=O)C2)n2nc(-c3ccccc3Cl)c(-c3ccc(Cl)cc3)c2n1 [Compound 24]
(Q) C[C@@H](C(N)=O)N(C)c1cc(N2CCC(C)(C(N)=O)CC2)n2nc(-c3ccccc3Cl)c(-c3ccc(Cl)cc3)c2n1 [Compound 68]
Data request: Which entry has a larger number for pIC50, P or Q ? Indicate which entry you chose by stating its label.
Data returned: Q
(Q: 7.84, P: 7.02)
